Experiment: Biodistribution in AR42J tumor-bearing nude mice
Conditions: mouse, in vivo, iv, Biodistribution Blood, Control, 60 min p.i., tracer only, n = 5
Result Type: tissue uptake at 1 h (%ID/g)

{"columns": ["Molecule", "Result Type", "Endpoint Value"],
 "data": [
  ["C[C@@H](O)[C@H](NC(=O)[C@@H]1CSSC[C@H](NC(=O)[C@@H](Cc2ccccc2)NC(=O)CN2CCN(CC(=O)O)CCN(CC(=O)O)CCN(CC(=O)O)CC2)C(=O)N[C@@H](Cc2ccc(O)cc2)C(=O)N[C@H](Cc2c[nH]c3ccccc23)C(=O)N[C@@H](CCCCN)C(=O)N[C@@H]([C@@H](C)O)C(=O)N1)C(=O)O [[^68Ga]DOTATATE, [^68Ga]DOTA-Tyr^3-octreotate, metal not drawn]", "tissue uptake at 1 h", 0.3]
]}
